// pIC50 lookup, one value per entry
Test system: A549
Run description: Concentration required for the 50% inhibition of human lung caner (A549) cell line growth
Format: functional, cell-based
Schema: pIC50 number; meaning minus log10 of the concentration expressed in molar units.

Worked cases, pIC50 given:
Compound structure | Assay endpoint | Measured
COc1ccc(/C=C\c2cc(OC)c(OC)c(OC)c2)cc1O | pIC50 | 6.93
COc1cc(C(=O)c2c[nH]c3cccc(OC)c23)cc(OC)c1OC | pIC50 | 5.19
COc1ccc2c(C(=O)c3cc(OC)c(OC)c(OC)c3)c[nH]c2c1 | pIC50 | 7.64

Could you now consider this next compound?
Query :: Name the reported pIC50 value associated with the compound COc1ccc2[nH]cc(C(=O)c3cc(OC)c(OC)c(OC)c3)c2c1
Result :: 6.21
